- study-target: Small conductance calcium-activated potassium channel (Rattus norvegicus, UniProt P70604+P70606+P70605)
- assay-overview: Inhibition of after hyperpolarization (AHP) of cultured rat sympathetic neurons as SKCa channel blocking activity
- Format: functional, cell-based
- setup-conditions: sympathetic neuron
Listed next: entries and their corresponding IC50.
Note: a bare number is incomplete; add the unit.

Worked cases, IC50 given:
compound: c1cc2cc(c1)C[n+]1ccc(c3ccccc31)NCCCCCCNc1cc[n+](c3ccccc13)C2
measure: IC50
observed-result: 35 nM
--
compound: c1ccc2c(c1)c1cc[n+]2CCCCCC[n+]2ccc(c3ccccc32)NCCCCCN1
measure: IC50
observed-result: 16 nM
--
compound: c1ccc2c(c1)c1cc[n+]2CCC[n+]2ccc(c3ccccc32)NCc2ccc(cc2)CN1
measure: IC50
observed-result: 150 nM
--
compound: [I-].[I-].c1ccc2c(c1)c1cc[n+]2CCCCCCCC[n+]2ccc(c3ccccc32)NCCCCCCCCN1
measure: IC50
observed-result: 190 nM

Proceeding to the next compound to report its IC50.
*Q* Look up IC50: Cc1cc(N)c2ccccc2[n+]1CCCCCCCCCC[n+]1c(C)cc(N)c2ccccc21.[Cl-].[Cl-] [DEQUALINIUM CHLORIDE]
*A* 900 nM

* * *

- study-target: Small conductance calcium-activated potassium channel (Rattus norvegicus, UniProt P70604+P70606+P70605)
- assay-overview: Inhibition of after hyperpolarization (AHP) of cultured rat sympathetic neurons as SKCa channel blocking activity
- Assay type: functional, cell-based
- setup-conditions: sympathetic neuron
Lab note: compare IC50 with 40 nM, writing yes (1) if less and no (0) if equal or more.

These solved cases illustrate the format of a correct answer.
molecule: c1ccc2c(c1)c1cc[n+]2CCCCC[n+]2ccc(c3ccccc32)NCCCCN1
answer-label: yes (1)

molecule: c1ccc2c(c1)c1cc[n+]2CCCC[n+]2ccc(c3ccccc32)NCCCCCN1
answer-label: yes (1)

molecule: c1ccc2c(c1)c1cc[n+]2CCCCC[n+]2ccc(c3ccccc32)NCCCN1
answer-label: yes (1)

molecule: c1cc2cc(c1)C[n+]1ccc(c3ccccc31)NCCCCCNc1cc[n+](c3ccccc13)C2
answer-label: yes (1)

molecule: c1ccc2c(c1)c1cc[n+]2CCC[n+]2ccc(c3ccccc32)NCCCN1 (stereo in doubt; 2l)
answer-label: no (0)

*Q* Does c1ccc2c(c1)c1cc[n+]2CCCCC[n+]2ccc(c3ccccc32)NCc2ccc(cc2)CN1 have IC50 strictly under 40 nM?
*A* no (0)

*Q* Strictly below 40 nM: is that where IC50 of c1ccc2c(c1)c1cc[n+]2CCCCC[n+]2ccc(c3ccccc32)NCCCCCCN1 sits?
*A* yes (1)

*Q* In plain terms, does c1cc2cc(c1)C[n+]1ccc(c3ccccc31)NCCCNc1cc[n+](c3ccccc13)C2 come in under 40 nM for IC50?
*A* yes (1)

* * *

- study-target: Small conductance calcium-activated potassium channel (Rattus norvegicus, UniProt P70604+P70606+P70605)
- assay-overview: Inhibition of after hyperpolarization (AHP) of cultured rat sympathetic neurons as SKCa channel blocking activity
- Assay type: functional, cell-based
- setup-conditions: sympathetic neuron
measure: IC50 (nM)
The response must be a number in nM with no trailing unit.

compound: [I-].[I-].c1ccc2c(c1)c1cc[n+]2CCCCC[n+]2ccc(c3ccccc32)NCCCCCN1
IC50 / nM: 2

compound: c1ccc2c(c1)c1cc[n+]2CCC[n+]2ccc(c3ccccc32)NCCCN1 (stereo in doubt; 2m)
IC50 / nM: 380

compound: c1ccc2c(c1)c1cc[n+]2CCCCCC[n+]2ccc(c3ccccc32)NCc2ccc(cc2)CN1
IC50 / nM: 65

compound: c1ccc2c(c1)c1cc[n+]2CCCCCCCCCC[n+]2ccc(c3ccccc32)NCCCCCCCCCCN1
IC50 / nM: 260

Let's switch to this compound now.
*Q* So what does the record say about IC50 for c1ccc2c(c1)c1cc[n+]2CCCCCC[n+]2ccc(c3ccccc32)NCCCCCCN1 ?
*A* 60
